B1: tRNA (parent)
chain: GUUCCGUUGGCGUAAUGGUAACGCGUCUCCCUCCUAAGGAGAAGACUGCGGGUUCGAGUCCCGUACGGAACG

Variants of: B1
experimental.protocol: yeast fitness relative to wild type (ratio to wild type); higher = fitter; tRNA-Arg(CCU), competitive growth, 37 C, YPD
Fewer inactive variants are shown than the library holds.
Some variants, each annotated with its measured yeast fitness.

Input: Which yeast fitness is listed for C4A C11U C22A G23C A40G ?
Output: ≤ 0.5

Input: Reported yeast fitness, variant C22U C27G U28G U32G A45G : ____
Output: ≤ 0.5

Input: // yeast fitness lookup, key: U32A G52C
Output: ≤ 0.5

Input: For the variant shown here, C46U C61G C66U A69U , give the reported yeast fitness.
Output: ≤ 0.5

Input: Quick one: yeast fitness for U28G A57U U59C ?
Output: ≤ 0.5

Further cases:
Input: Which yeast fitness reading was recorded for the variant C4A U13G U32G C55U G63C ?
Output: ≤ 0.5

Input: Return reported yeast fitness; argument: G18C A20G C55U G67C
Output: ≤ 0.5

Input: Form field: reported yeast fitness of G12A G51A C61A
Output: ≤ 0.5

Input: // lookup yeast fitness for U13C A14C A45U C66U
Output: ≤ 0.5

Input: Reported yeast fitness for C4U C29A A36C A40U G51A G68C : what is it?
Output: ≤ 0.5

Input: For A37C A43C C66A , what is its reported yeast fitness?
Output: ≤ 0.5
